Values were extracted from patent US9579314B2.

pIC50: −log10 of the molar value.
Observed pIC50, system Human M3 receptor (Homo sapiens).

Req: Recorded pIC50 for O=C(NCc1ccc(COc2cccc([C@](O)(C(=O)OCC3CCN(Cc4ccccc4)CC3)c3ccccc3)c2)cc1)c1ccc(CNC[C@H](O)c2ccc(O)c3[nH]c(=O)ccc23)cc1 [Compound 42D] , please?
Resp: 8.52 to 9.52

Req: Give the measured pIC50 of `O=C(N[C@H]1CCCN(C(=O)COc2cccc([C@](O)(C(=O)OCC3CCN(Cc4ccccc4)CC3)c3ccccc3)c2)C1)c1ccc(CNC[C@H](O)c2ccc(O)c3[nH]c(=O)ccc23)cc1` .
Resp: 8.52 to 9.52

Req: Reported pIC50 for `O=C(COc1cccc([C@](O)(C(=O)OCC2CCN(Cc3ccccc3)CC2)c2ccccc2)c1)N[C@H]1C[C@H](NC(=O)c2ccc(CNC[C@H](O)c3ccc(O)c4[nH]c(=O)ccc34)nc2)C1` : what is it?
Resp: 8.52 to 9.52

Req: // returns reported pIC50 for input O=C(NCCCNC(=O)c1ccc(CNC[C@H](O)c2ccc(O)c3[nH]c(=O)ccc23)cc1)Nc1cccc(C(O)(C(=O)OCC2CCN(Cc3ccccc3)CC2)c2ccccc2)c1 (stereo partly shown) [Compound 56, diformate]
Resp: < 8.52

Req: Request the reported pIC50 associated with `O=C(NC1CCN(C(=O)COc2cccc([C@](O)(C(=O)OCC3CCN(Cc4ccccc4)CC3)c3ccccc3)c2)CC1)c1ccc(CCNC[C@H](O)c2ccc(O)c3[nH]c(=O)ccc23)cc1`
Resp: > 9.52

Req: Name the recorded pIC50 for `O=C(COc1cccc([C@](O)(C(=O)OCC2CCN(Cc3ccccc3)CC2)c2ccccc2)c1)N[C@H]1C[C@H](NC(=O)c2ccc(CNC[C@H](O)c3ccc(O)c4[nH]c(=O)ccc34)c(F)c2)C1` .
Resp: 8.52 to 9.52

Req: Can you look up the measured pIC50 of `O=C(NCCCOc1cccc([C@](O)(C(=O)OCC2CCN(Cc3ccccc3)CC2)c2ccccc2)c1)c1ccc(CCNC[C@H](O)c2ccc(O)c3[nH]c(=O)ccc23)cc1` for me?
Resp: > 9.52

Req: // returns reported pIC50 for input O=C(NCCCOc1cccc([C@](O)(C(=O)OCC2CCN(Cc3ccccc3)CC2)c2ccccc2)c1)c1ccc(CNC[C@H](O)c2ccc(O)c3[nH]c(=O)ccc23)c(C(F)(F)F)c1 [Compound 32M]
Resp: 8.52 to 9.52

Req: Bench note: what pIC50 did `O=C(COc1cccc([C@](O)(C(=O)OCC2CCN(Cc3ccccc3)CC2)c2ccccc2)c1)N[C@@H]1CCN(C(=O)c2ccc(CNC[C@H](O)c3ccc(O)c4[nH]c(=O)ccc34)cc2)C1` show?
Resp: 8.52 to 9.52

Req: Entry `O=C(c1ccc(CCNC[C@H](O)c2ccc(O)c3[nH]c(=O)ccc23)cc1)N1CC(COc2cccc([C@](O)(C(=O)OCC3CCN(Cc4ccccc4)CC3)c3ccccc3)c2)C1` has what pIC50?
Resp: > 9.52

Req: So what does the record say about pIC50 for `O=C(NCCOc1cccc([C@](O)(C(=O)OCC2CCN(Cc3ccccc3)CC2)c2ccccc2)c1)c1ccc(CCNC[C@H](O)c2ccc(O)c3[nH]c(=O)ccc23)cc1` ?
Resp: > 9.52

Req: Item under review: `O=C(COc1cccc([C@](O)(C(=O)OCC2CCN(Cc3ccccc3)CC2)c2ccccc2)c1)N[C@@H]1CCCN(C(=O)c2ccc(CNC[C@H](O)c3ccc(O)c4[nH]c(=O)ccc34)cc2)C1` . Reported pIC50?
Resp: 8.52 to 9.52

Req: Can you share its pIC50? I mean this molecule: COc1cc(C(=O)NCc2ccc(COc3cccc([C@](O)(C(=O)OCC4CCN(Cc5ccccc5)CC4)c4ccccc4)c3)cc2)ccc1CNC[C@H](O)c1ccc(O)c2[nH]c(=O)ccc12 [Compound 42F]
Resp: 8.52 to 9.52

Req: Please look up its pIC50: O=C(OCC1CCN(Cc2ccccc2)CC1)C(O)(c1cccc(OCCCCCNC[C@H](O)c2ccc(O)c3[nH]c(=O)ccc23)c1)c1ccccc1Cl (stereo partly shown)
Resp: < 8.52

Req: Quick one: pIC50 for `O=C(c1ccc(CCNC[C@H](O)c2ccc(O)c3[nH]c(=O)ccc23)cc1)N1CCC2(CCCN(C(=O)c3ccc(COc4cccc([C@](O)(C(=O)OCC5CCN(Cc6ccccc6)CC5)c5ccccc5)c4)cc3)C2)CC1` ?
Resp: 8.52 to 9.52

Req: Query (molecule): `CN(CCNC(=O)c1ccc(CCNC[C@H](O)c2ccc(O)c3[nH]c(=O)ccc23)cc1)C(=O)COc1cccc([C@](O)(C(=O)OCC2CCN(Cc3ccccc3)CC2)c2ccccc2)c1` ; field requested: pIC50
Resp: < 8.52

Req: State the recorded pIC50 for this entry: `COc1cc(C(=O)N[C@H]2C[C@H](NC(=O)COc3cccc([C@](O)(C(=O)OCC4CCN(Cc5ccccc5)CC4)c4ccccc4)c3)C2)c(Cl)cc1CNC[C@H](O)c1ccc(O)c2[nH]c(=O)ccc12`
Resp: 8.52 to 9.52

Req: Given `O=C(c1ccc(CCNC[C@H](O)c2ccc(O)c3[nH]c(=O)ccc23)cc1)N1CCC2(CC1)CCN(C(=O)c1ccc(COc3cccc([C@](O)(C(=O)OCC4CCN(Cc5ccccc5)CC4)c4ccccc4)c3)cc1)CC2` , state its recorded pIC50.
Resp: 8.52 to 9.52

Req: pIC50 lookup needed for O=C(OCC1CCN(Cc2ccccc2)CC1)C(O)(c1cccc(F)c1)c1cccc(OCCCCCNC[C@H](O)c2ccc(O)c3[nH]c(=O)ccc23)c1 (stereo partly shown) , thanks.
Resp: 8.52 to 9.52

====

study target: Human β2 adrenoceptor (Homo sapiens, UniProt P07550)
Sequence (P07550 whole entry): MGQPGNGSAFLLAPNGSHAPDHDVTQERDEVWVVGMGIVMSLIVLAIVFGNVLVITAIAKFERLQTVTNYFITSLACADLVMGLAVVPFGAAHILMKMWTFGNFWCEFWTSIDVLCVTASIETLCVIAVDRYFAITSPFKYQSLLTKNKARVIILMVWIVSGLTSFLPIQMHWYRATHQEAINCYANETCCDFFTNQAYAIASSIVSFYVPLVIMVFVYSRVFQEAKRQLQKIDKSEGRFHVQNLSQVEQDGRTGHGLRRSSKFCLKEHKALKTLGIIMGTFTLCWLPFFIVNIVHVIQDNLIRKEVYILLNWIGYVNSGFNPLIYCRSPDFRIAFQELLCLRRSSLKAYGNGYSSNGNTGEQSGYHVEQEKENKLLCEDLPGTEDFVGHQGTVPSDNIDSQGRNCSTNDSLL
Exercise: state measured IC50 for each of the compounds provided.

Req: Please report the recorded IC50 for O=C(COc1cccc([C@](O)(C(=O)OCC2CCN(Cc3ccccc3)CC2)c2ccccc2)c1)N[C@H]1CCN(C(=O)c2ccc(CCNC[C@H](O)c3ccc(O)c4[nH]c(=O)ccc34)cc2)C1 [Compound 107] .
Resp: < 0.3 nM

Req: If you can, please state the reported IC50 value of O=C(NCCCOc1cccc([C@](O)(C(=O)OC[C@H]2CCN(Cc3ccccc3)C2)c2ccccc2)c1)c1ccc(CNC[C@H](O)c2ccc(O)c3[nH]c(=O)ccc23)cc1 [Compound 160] .
Resp: < 0.3 nM

Req: For the compound O=C(COc1cccc([C@](O)(C(=O)OCC2CCN(Cc3ccccc3)CC2)c2ccccc2)c1)N[C@@H]1CCCN(C(=O)c2ccc(CNC[C@H](O)c3ccc(O)c4[nH]c(=O)ccc34)cc2)C1 [Compound 71] , what IC50 is on record?
Resp: > 3 nM

Req: Would you kindly share the measured IC50 for O=C(COc1cccc([C@](O)(C(=O)OCC2CCN(Cc3ccccc3)CC2)c2ccccc2)c1)NC1CN(C(=O)c2ccc(CNC[C@H](O)c3ccc(O)c4[nH]c(=O)ccc34)cc2)C1 [Compound 66] ?
Resp: < 0.3 nM

Req: Fill in: IC50 of O=C(COc1cccc([C@](O)(C(=O)OCC2CCN(Cc3ccccc3)CC2)c2ccccc2)c1)N1CCN(C(=O)c2ccc(CCNC[C@H](O)c3ccc(O)c4[nH]c(=O)ccc34)cc2)CC1 [Compound 86] is ___
Resp: < 0.3 nM

Req: If you can, please state the reported IC50 value of O=C(NCC(=O)N1CCC(COc2cccc([C@](O)(C(=O)OCC3CCN(Cc4ccccc4)CC3)c3ccccc3)c2)CC1)c1ccc(CCNC[C@H](O)c2ccc(O)c3[nH]c(=O)ccc23)cc1 [Compound 152] .
Resp: 0.3 to 3 nM

Req: Form field: reported IC50 of COc1cc(NC(=O)COc2cccc([C@](O)(C(=O)OCC3CCN(Cc4ccccc4)CC3)c3ccccc3)c2)c(F)cc1CNC[C@H](O)c1ccc(O)c2[nH]c(=O)ccc12 [Compound 42B]
Resp: < 0.3 nM

Req: Tell me the measured IC50 of O=C(c1ccc(CCNC[C@H](O)c2ccc(O)c3[nH]c(=O)ccc23)cc1)N1CCC2(CCCN(C(=O)c3ccc(COc4cccc([C@](O)(C(=O)OCC5CCN(Cc6ccccc6)CC5)c5ccccc5)c4)cc3)C2)CC1 [Compound 122] , please.
Resp: > 3 nM

Req: For the compound O=C(NCc1ccc(COc2cccc([C@](O)(C(=O)OCC3CCN(Cc4ccccc4)CC3)c3ccccc3)c2)cc1)c1ccc(CCNC[C@H](O)c2ccc(O)c3[nH]c(=O)ccc23)cc1 [Compound 42C] , what IC50 is on record?
Resp: < 0.3 nM

Req: Which IC50 value belongs to COc1cc(C(=O)NCc2ccc(COc3cccc([C@](O)(C(=O)OCC4CCN(Cc5ccccc5)CC4)c4ccccc4)c3)cc2)ccc1CNC[C@H](O)c1ccc(O)c2[nH]c(=O)ccc12 [Compound 42F] ?
Resp: < 0.3 nM
